- Assay: NCI Yeast Anticancer Drug Screen. Data for the sgs1 mgt1 strain (AID 161);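 also: 0% = growth of cultures given vehicle only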
- Test conditions: S. cerevisiae sgs1 mgt1 strain, at 50.0 µM
This is part of a sample that, as a whole, favours compounds with a hit. Of some 79,000 tested, about 15% had one in any assay. Activity calls are given as the source filed them. Rule as the data show it: active = growth inhibition above about 70%; inactive = the rest.
Parameter call: string, one of true (1) for active, false (0) for inactive

Compound: CN(C)c1ccc(C(c2ccc(N(C)C)cc2)c2cccc([N+](=O)[O-])c2)cc1
Category: false (0)

Compound: COc1cccc(-c2cc(=O)c3c(C)ccnc3[nH]2)c1
Category: true (1)

Compound: O=C1O/C(=C(\Cc2ccccc2)c2ccccc2)N(c2ccccc2)C1=O
Category: false (0)

Compound: CC(CCCOC(c1ccccc1)(c1ccccc1)c1ccccc1)OC(=O)Nc1ccccc1 (stereo not given)
Category: true (1)

Dear all, I need the recorded test outcome for COc1ccc(/C=C/C(C)=N/NC(=S)NCC(C)C)cc1 , thank you.
true (1)

Which outcome did this test record for the compound O=C1COCC(=O)OCCOCCSCCOCCO1 ?
false (0)

Write down the call the test reported for this compound. Item: c1ccc(-c2ccc(-c3cnc(-c4ccc(-c5ccccc5)cc4)o3)cc2)cc1
true (1)

What call does the record list for CC(=O)OC1=CC(n2cc(F)c(=O)[nH]c2=O)OC(C)C1=O (stereo not given) ?
true (1)

Could you please tell me the result logged for Cc1cc(NCCCCCCCCNc2cc(C)nc3cc(N(C)C)ccc23)c2ccc(N(C)C)cc2n1 in this assay?
false (0)

How did this test come out for CCCCCCCCCCOC(=O)c1ccccn1 ?
false (0)
